system: KM12; test: NCI tumour cell line growth inhibition, 48 h
Active and inactive are the calls of the source. Rule as the data show it: active = GI50 up to about 1.1 µM and inactive = higher.
A correct response names exactly one class from active, inactive

compound=Clc1ccc(C(c2ccc(Cl)cc2)N2CCNCC2)cc1 experimental_target=KM12 discrete_label=inactive

## Task Just curious, what result did O=C1NP23(OCCO2)Oc2ccccc2C3(C(F)(F)F)O1 (stereo unspecified) get here?
## Result inactive

## Task And for "Nc1nc(N)c2ncn(Cc3ccccc3CO)c2n1" ?
## Result inactive

## Task And for C=C1CCc2occ(C)c2C2C1C1=C(CC(C)C1=O)C1OC12C (stereo unspecified) ?
## Result inactive

## Task And for "CCOc1cccc2nc3cccc(C(=O)NCCN(C)C)c3nc12" ?
## Result active

## Task And for O=C1c2ccccc2CC1C1(O)C(=O)Nc2c(Cl)cc(Cl)cc21 (stereo unspecified) ?
## Result inactive

## Task And for "CC1=C(O)C(=O)[C@@H]2O[C@@H]2C1=O" ?
## Result inactive

## Task And for CCN(CC)CCC(=O)NC1c2ccc(Cl)cc2Oc2c(C)cccc21 (stereo unspecified) ?
## Result inactive

## Task And for "COC(=O)c1ccc(/N=N/N(C)CO)cc1" ?
## Result inactive

## Task And for Cc1c(-c2ccc(-c3ccccc3F)cc2)nc2ccc(F)cc2c1C(=O)O [BREQUINAR SODIUM] ?
## Result active

## Task And for "COc1c(C2(c3ccc(F)cc3)SCCCS2)c(=O)c1=O" ?
## Result inactive

## Task And for "O=C(N/N=C\c1ccc([N+](=O)[O-])s1)c1ccncc1" ?
## Result inactive

## Task And for "COc1cc(OC)c2c(c1)C(=O)C(CC1(C)OCCCO1)=CC2=O" ?
## Result inactive

## Task And for "CC(C)(C)OC(=O)NCCC(N)=S" ?
## Result inactive

## Task And for CSCC[C@@H](NC(=O)[C@H](CC(C)C)NC(=O)C(Cc1cnc[nH]1)NC(=O)CNC(=O)[C@@H](NC(=O)[C@H](C)NC(=O)[C@H](Cc1c[nH]c2ccccc12)NC(=O)[C@H](CCC(N)=O)NC(=O)[C@@H](N)CC(N)=O)C(C)C)C(N)=O (stereo partly specified) ?
## Result inactive

## Task And for "COC(=O)C1=C(C(=O)OC)SC2(S1)C(C(=O)OC)=C(C(=O)OC)Sc1c2ss/c1=N\c1ccc(Cl)cc1" ?
## Result active

## Task And for "COc1ccc(Cc2nc3cc(Cl)ccc3o2)cc1" ?
## Result inactive

## Task And for "CC(C)(Br)C(=O)/C=C/c1ccccc1" ?
## Result inactive

## Task And for "O=C(O)CCN(CCC(=O)O)c1ccc(/C=C2\SC(=S)NC2=O)cc1" ?
## Result inactive

## Task And for "Cc1cc2c(c(C(=O)NCCC(=O)O)c1)Oc1c(cc(C)cc1C(=O)NCCC(=O)O)S2" ?
## Result inactive

## Task And for Cc1ccc(S(=O)OC2c3ccccc3Cc3ccccc32)cc1 (stereo unspecified) ?
## Result inactive

## Task And for CC1CN=C(N(C)C(=O)Nc2ccc(Cl)cc2)S1 (stereo unspecified) ?
## Result inactive

###

test system: IGROV-1; experiment: NCI tumour cell line growth inhibition, 48 h
Calls of active or inactive are those of the source. Cut-off read from the data, not from the text of the source: active = GI50 up to about 1.1 µM and inactive = higher.
A correct response names exactly one class from active, inactive

compound="CCC1OC2(C)CC(C#N)(C#N)C1(C#N)C(=N)O2 (centres undefined)" discrete_label=inactive
compound="O=S(=O)(NC1OCCCC1I)c1ccccc1 (centres undefined)" discrete_label=inactive

## Task Just curious, what result did "NC(=S)Nc1nc(=S)[nH]c2c1SC1=N/C(=C\c3ccco3)C(=O)N12" get here?
## Result inactive

## Task And for CS(=O)(=O)CCC(N)P(=O)(O)O (centres undefined) ?
## Result inactive

## Task And for "CCN(CCCOc1ccccc1)CCN(CC)CCCOc1ccccc1" ?
## Result inactive

Source listed as ChEMBL document CHEMBL1201862.
